# credit: ChEMBL document CHEMBL3885881

species on record: Rattus norvegicus; test: DrugMatrix - Regimen: Daily Repeat; type: toxicity, organism-based, Sprague-Dawley; set-up: regimen Daily Repeat, gender Male, age 6-8 weeks; settings: in vivo, iv, 0 mg/kg, 120 h, tissue Blood, dose level Control, time 5 day, vehicle 100 % SALINE
parameterMeasured: ABSOLUTE EOSINOPHIL (CELLS/uL)

1) N=C(N)c1ccc(OCCCCCOc2ccc(C(=N)N)cc2)cc1 [PENTAMIDINE]	27.5
2) C[N+](C)(C)CCOC(=O)CCC(=O)OCC[N+](C)(C)C.[Cl-].[Cl-] [SUCCINYLCHOLINE CHLORIDE]	27.5
3) O=c1[nH]c(=O)n([C@H]2C[C@H](O)[C@@H](CO)O2)cc1F [FLOXURIDINE]	159.17
4) COc1cccc2c1C(=O)c1c(O)c3c(c(O)c1C2=O)C[C@@](O)(C(C)=O)C[C@@H]3O[C@H]1C[C@H](N)[C@H](O)[C@H](C)O1 [DAUNORUBICIN]	17
5) O=C(O)P(=O)(O)O [FOSCARNET]	158.83
